Read-out: flavin-containing dimethylaniline monooxygenases 3 (FMO3), FMO3 (gene 2328)
Assay: LTEA_HepaRG_FMO3: Life Technologies and Expression Analysis (LTEA) Assay for flavin-containing dimethylaniline monooxygenases 3 (FMO3) using HepaRG (AID 2283453)
Settings: mRNA level, 48 h; actives raise or lower the signal
Activity calls are given as the source filed them. Rule for the calls: active = hit-call score of the fitted dose curve at least 0.9, where 1 is the maximum; inactive = score below 0.9.
quantity: outcome

Reported outcome for CN1CSC(=S)N(C)C1 : what is it?
inactive

Reported outcome for COP(=S)(OC)Oc1ccc(SC)c(C)c1 : what is it?
inactive

Reported outcome for O=C(O)COc1ccc(Cl)cc1Cl : what is it?
inactive

---

Read-out: Keratin 19 (KRT19), KRT19 (gene 3880)
Assay: LTEA_HepaRG_KRT19: Life Technologies and Expression Analysis (LTEA) Assay for Keratin 19 (KRT19) using HepaRG (AID 2283512)
Conditions: mRNA level, 48 h; actives raise or lower the signal
The source made the active and inactive calls. Rule for the calls: active = hit-call score of the fitted dose curve at least 0.9, where 1 is the maximum; inactive = score below 0.9.
Can you answer with just one of these options? active, inactive

Some solved entries appear below for comparison.
For O=C1c2ccccc2C(=O)N1SC(Cl)(Cl)Cl , which call appears in the assay record?
inactive

For C[C@H]1[C@H](c2ccc(Cl)cc2)SC(=O)N1C(=O)NC1CCCCC1 , which call appears in the assay record?
active

For CNC(=O)CSP(=S)(OC)OC , which call appears in the assay record?
inactive

For CNC(=O)Oc1cccc(N=CN(C)C)c1 , which call appears in the assay record?
inactive

For O=C(O)C(F)(F)C(F)(F)C(F)(F)C(F)(F)C(F)(F)C(F)(F)C(F)(F)F , which call appears in the assay record?
inactive

Now examine the next entry.
For CC(C)(C)C(O)C(Oc1ccc(Cl)cc1)n1cncn1 (configuration not stated) , which call appears in the assay record?
inactive

---

Read-out: xenobiotic metabolism (CYP1A1), CYP1A1 (gene 1543)
Experiment: CLD_CYP1A1_48hr: CellzDirect (CLD) Gene Expression Assay for xenobiotic metabolism (CYP1A1) at 48 hours (AID 2283705)
Method: CLD_48hr is a cell-based, multiplexed-readout assay that uses hepatocyte, a human liver primary cell, with measurements taken at 48 hours after chemical dosing in a 96-well plate.CLD_CYP1A1_48hr is one of 16 assay component(s) measured or calculated from the CLD_48hr assay. […] Furthermore, this assay endpoint can be referred to as a primary readout. […]
Records with an inconclusive call do not appear. Calls of active or inactive are those of the source. Rule for the calls: active = hit-call score of the fitted dose curve at least 0.9, where 1 is the maximum; inconclusive = response in the unintended direction; inactive = score below 0.9.
quantity: AC50

Below: 5 compounds and their reported AC50.
Reported AC50 for N#CN : what is it?
inactive

Reported AC50 for CC(C)(C)C(O)/C(=C\c1ccc(Cl)cc1Cl)n1cncn1 (stereo not drawn) : what is it?
20 µM (active)

Reported AC50 for CCC(C)Nc1c([N+](=O)[O-])cc(C(C)(C)C)cc1[N+](=O)[O-] (stereo not drawn) : what is it?
3.77 µM (active)

Reported AC50 for CN1CSC(=S)N(C)C1 : what is it?
inactive

Reported AC50 for O=C(Nc1ccccc1)Nc1cnns1 : what is it?
20 µM (active)

For each of the compounds below, note its AC50.
1. COC(=O)c1ccccc1CS(=O)(=O)NC(=O)Nc1nc(OC)cc(OC)n1
2. N#Cc1c(Cl)c(Cl)c(Cl)c(C#N)c1Cl
3. CCOCN(C(=O)CCl)c1c(C)cccc1CC

["inactive", "inactive", "1.85 µM (active)"]

For each of the compounds below, note its AC50.
1. CCc1ccc(C(=O)NN(C(=O)c2cc(C)cc(C)c2)C(C)(C)C)cc1
2. Oc1cc(Cl)ccc1Oc1ccc(Cl)cc1Cl
3. COc1cc(OC)nc(NC(=O)NS(=O)(=O)c2cc(NC=O)ccc2C(=O)N(C)C)n1
4. O=C(O)COc1ccc(Cl)cc1Cl
5. CCC(C)(NC(=O)c1cc(Cl)c(C)c(Cl)c1)C(=O)CCl (stereo not drawn)

1. inactive
2. inactive
3. inactive
4. inactive
5. 3.97 µM (active)

---

Target: Cytochrome P450 3A4 (Homo sapiens) (UniProt P08684)
Sequence (P08684 whole entry, looked up): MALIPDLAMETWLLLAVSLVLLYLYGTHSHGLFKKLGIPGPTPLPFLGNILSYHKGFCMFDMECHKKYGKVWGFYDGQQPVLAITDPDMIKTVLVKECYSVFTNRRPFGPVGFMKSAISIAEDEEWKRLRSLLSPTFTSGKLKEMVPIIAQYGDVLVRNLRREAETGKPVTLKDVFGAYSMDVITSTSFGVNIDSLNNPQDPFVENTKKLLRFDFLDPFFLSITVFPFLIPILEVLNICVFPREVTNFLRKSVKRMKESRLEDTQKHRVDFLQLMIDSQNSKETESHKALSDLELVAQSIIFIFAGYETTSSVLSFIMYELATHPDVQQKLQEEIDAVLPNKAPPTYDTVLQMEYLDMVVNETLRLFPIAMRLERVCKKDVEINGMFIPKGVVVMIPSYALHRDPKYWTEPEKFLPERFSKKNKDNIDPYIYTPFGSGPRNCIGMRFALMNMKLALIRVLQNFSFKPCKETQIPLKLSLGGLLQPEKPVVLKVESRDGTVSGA
Experiment: NVS_ADME_hCYP3A4: NovaScreen (NVS) CYP450-related Enzyme Activity (ADME) Assay for human CYP3A4 (AID 2283110)
Results filed as inconclusive are left out. Active and inactive are the calls of the source. How the source made its calls: active means hit-call score of the fitted dose curve at least 0.9, where 1 is the maximum; inconclusive means response in the unintended direction; inactive means score below 0.9.
Can you answer with just one of these options? yes (1) (active), no (0) (inactive)

Some solved entries appear below for comparison.
For N#Cc1c(Cl)c(Cl)c(Cl)c(C#N)c1Cl , which call appears in the assay record?
yes (1)

For [2H]C1([2H])[n+]2ccccc2-c2cccc[n+]2C1([2H])[2H] , which call appears in the assay record?
yes (1)

For CC(C)(C)C(O)/C(=C\c1ccc(Cl)cc1Cl)n1cncn1 (stereo not given) , which call appears in the assay record?
yes (1)

For Oc1ccc(Cl)cc1Cc1ccccc1 , which call appears in the assay record?
no (0)

Now examine the next entry.
For O=S(=O)(O)C(F)(F)C(F)(F)C(F)(F)C(F)(F)C(F)(F)C(F)(F)C(F)(F)C(F)(F)F , which call appears in the assay record?
no (0)

---

Read-out: succinate dehydrogenase complex iron sulfur subunit B (SDHB), SDHB (gene 6390)
Assay: LTEA_HepaRG_SDHB: Life Technologies and Expression Analysis (LTEA) Assay for succinate dehydrogenase complex iron sulfur subunit B (SDHB) using HepaRG (AID 2283528)
Conditions: mRNA level, 48 h; actives raise or lower the signal
Procedure: LTEA_HepaRG is a cell based, multiplexed-readout assay that uses HepaRG, a human liver cell line, with measurements taken at 48 hours after chemical dosing on a 96-well plate.LTEA_HepaRG_SDHB is one of 102 assay component(s) measured in the LTEA HepaRG cell culture assay. It is a marker of Cell proliferation, survival, death.Data from the assay component LTEA_HepaRG_SDHB was analyzed into 1 endpoint. […]
Active and inactive are the calls of the source. Rule for the calls: active = hit-call score of the fitted dose curve at least 0.9, where 1 is the maximum; inactive = score below 0.9.
quantity: AC50

Reported AC50 for Oc1cc(Cl)ccc1Oc1ccc(Cl)cc1Cl : what is it?
inactive

Reported AC50 for CC[C@H](C)[C@H]1O[C@]2(C=C[C@@H]1C)C[C@@H]1C[C@@H](C/C=C(\C)[C@@H](O[C@H]3C[C@H](OC)[C@@H](O[C@H]4C[C@H](OC)[C@@H](O)[C@H](C)O4)[C@H](C)O3)[C@@H](C)/C=C/C=C3\CO[C@@H]4[C@H](O)C(C)=C[C@@H](C(=O)O1)[C@]34O)O2 (tested in a mixture with another compound) : what is it?
59.5 µM (active)

Reported AC50 for CN1CSC(=S)N(C)C1 : what is it?
inactive

---

Read-out: Human Leukocyte Antigen - DR isotype (HLADR), HLA-DRA (gene 3122)
Assay: BSK_3C_HLADR: BioMAP Diversity Plus: 3C Assay for Human Leukocyte Antigen - DR isotype (HLADR) Biomarker Activity (AID 2283019)
Conditions: primary human endothelial cells (HUVEC); actives raise or lower the signal
The source made the active and inactive calls. Rule for the calls: active = hit-call score of the fitted dose curve at least 0.9, where 1 is the maximum; inactive = score below 0.9.
Can you answer with just one of these options? active, inactive

For CC[C@H](C)[C@H]1O[C@]2(C=C[C@@H]1C)C[C@@H]1C[C@@H](C/C=C(\C)[C@@H](O[C@H]3C[C@H](OC)[C@@H](O[C@H]4C[C@H](OC)[C@@H](O)[C@H](C)O4)[C@H](C)O3)[C@@H](C)/C=C/C=C3\CO[C@@H]4[C@H](O)C(C)=C[C@@H](C(=O)O1)[C@]34O)O2 (tested in a mixture with another compound) , which call appears in the assay record?
active

For OCCOc1ccccc1 , which call appears in the assay record?
inactive

For CCC(C)(NC(=O)c1cc(Cl)c(C)c(Cl)c1)C(=O)CCl (stereo not given) , which call appears in the assay record?
active

For CC(C)N(C(=O)COc1nnc(C(F)(F)F)s1)c1ccc(F)cc1 , which call appears in the assay record?
inactive

For CC(C)OC(=O)Nc1cccc(Cl)c1 , which call appears in the assay record?
inactive

Further cases:
For CNC(=O)Oc1ccccc1OC(C)C , which call appears in the assay record?
inactive

For CCCN(CCC)c1c([N+](=O)[O-])cc(C(F)(F)F)cc1[N+](=O)[O-] , which call appears in the assay record?
inactive

---

Biological target: Heat shock factor protein 1 (Homo sapiens)
Assay: ATG_HSE_CIS: Attagene CIS-FACTORIAL HepG2 Assay for human Heat Shock Transcription Factor 1 (HSE) (AID 2282953)
Conditions: HepG2 HSE cis-reporter, Attagene RNA transcription; actives raise or lower the signal
Activity calls are given as the source filed them. How the source made its calls: active means hit-call score of the fitted dose curve at least 0.9, where 1 is the maximum; inactive means score below 0.9.
Can you answer with just one of these options? class 1 = active, class 0 = inactive

Some solved entries appear below for comparison.
For O=C1c2ccccc2C(=O)N1SC(Cl)(Cl)Cl , which call appears in the assay record?
class 0

For CCCN(CCC)c1c([N+](=O)[O-])cc(C(F)(F)F)cc1[N+](=O)[O-] , which call appears in the assay record?
class 0

For N#Cc1c(Cl)c(Cl)c(Cl)c(C#N)c1Cl , which call appears in the assay record?
class 0

For CC(C)N(C(=O)COc1nnc(C(F)(F)F)s1)c1ccc(F)cc1 , which call appears in the assay record?
class 0

For Clc1ccccc1-c1nnc(-c2ccccc2Cl)nn1 , which call appears in the assay record?
class 0

Further cases:
For N#CN , which call appears in the assay record?
class 0

For Cc1cc(C)nc(NC(=O)NS(=O)(=O)c2ccccc2C(=O)OC2COC2)n1 , which call appears in the assay record?
class 1

For ClC1C(Cl)C(Cl)C(Cl)C(Cl)C1Cl (stereo not drawn) , which call appears in the assay record?
class 0

For OCCOc1ccccc1 , which call appears in the assay record?
class 0

For CCOc1nc(NC)nc(NC(=O)NS(=O)(=O)c2ccccc2C(=O)OC)n1 , which call appears in the assay record?
class 0

For Cc1[nH]c(=O)n(C(C)(C)C)c(=O)c1Cl , which call appears in the assay record?
class 0

For CC(C)(C)C(O)C(Oc1ccc(Cl)cc1)n1cncn1 (stereo not drawn) , which call appears in the assay record?
class 0

For CC1(C)C(C=C(Cl)Cl)C1C(=O)OC(C#N)c1ccc(F)c(Oc2ccccc2)c1 (stereo not drawn) , which call appears in the assay record?
class 0
